Numbers sourced from PubChem BioAssay (NCI).

System: SF-295 CNS
TEST_DETAILS: NCI-60 one-dose screen, 48 h (100 = growth as untreated, 0 = no growth, -100 = all killed)
CONDITION_SET: 10 µM unless noted
This is part of a sample that, as a whole, favours compounds with a hit. Of some 83,000 tested, about 20% had one in any assay. Active and inactive are the calls of the source. How the source made its calls: active means growth percent below 10; inactive means the rest.
Field: growth. Provide a value for each of the compounds that follow.

Value of growth reported for the compound CCOC(=O)C1=C(C)N=C2Sc3cc(OC(F)(F)F)ccc3N2[C@H]1c1ccccn1 is 22.2% (inactive)

Value of growth reported for the compound COc1cc(-c2nc(C(=O)NCC(=O)O)nn2-c2ccc(Cl)cc2)cc(OC)c1OC is 95.2% (inactive)

Value of growth reported for the compound CC(=O)NCC(=O)N1[C@@H]2CC[C@H]1c1ccc(Nc3ncc(C(F)(F)F)c(NC4CCC4)n3)cc12 is 60% [2.5 µM] (inactive)

Value of growth reported for the compound CCCCOc1nc2cc(Cl)ccc2cc1/C=C/c1cc(/C=C/c2cc3ccc(Cl)cc3nc2OCCCC)n(-c2ccccc2)n1 is 52.4% (inactive)

Value of growth reported for the compound CCc1ccc(/C=C/c2ccc(O)c3ncccc23)[n+](C)c1 is 58.5% (inactive)
